# protocol_description: Solubility at room temperature (HPLC isocratic method)
# Type: physicochemical
# assay_context: aqueous with cosolvent or surfactant or cyclodextrin, thermodynamic from solid; 25% HP-βCD, pH adjusted with 0.1 N HCl to about pH 3, room temperature; read-out: Solubility
measurement_label: solubility
Hi, when you answer, please include the unit after the number. Thanks!

Incoming: Reported solubility, molecule CNC(=O)N1CCN(Cc2ccnc(Nc3ncc(C#N)s3)c2)CC1.CS(=O)(=O)O [mesylate salt (Form A)] : ____
Outgoing: 45 mg/mL

###

# protocol_description: Solubility at room temperature (HPLC isocratic method)
# Format: physicochemical
# assay_context: aqueous with cosolvent or surfactant or cyclodextrin, thermodynamic from solid; 10% HP-βCD, pH adjusted with 0.1 N HCl to about pH 3, room temperature; read-out: Solubility
measurement_label: solubility
Hi, when you answer, please include the unit after the number. Thanks!

Incoming: Reported solubility, molecule CNC(=O)N1CCN(Cc2ccnc(Nc3ncc(C#N)s3)c2)CC1.CS(=O)(=O)O [mesylate salt (Form A)] : ____
Outgoing: 27.1 mg/mL

From: patent US20040023978A1
